# target_entity: FGFR3 (UniProt P22607)
# Sequence (P22607 whole entry, looked up): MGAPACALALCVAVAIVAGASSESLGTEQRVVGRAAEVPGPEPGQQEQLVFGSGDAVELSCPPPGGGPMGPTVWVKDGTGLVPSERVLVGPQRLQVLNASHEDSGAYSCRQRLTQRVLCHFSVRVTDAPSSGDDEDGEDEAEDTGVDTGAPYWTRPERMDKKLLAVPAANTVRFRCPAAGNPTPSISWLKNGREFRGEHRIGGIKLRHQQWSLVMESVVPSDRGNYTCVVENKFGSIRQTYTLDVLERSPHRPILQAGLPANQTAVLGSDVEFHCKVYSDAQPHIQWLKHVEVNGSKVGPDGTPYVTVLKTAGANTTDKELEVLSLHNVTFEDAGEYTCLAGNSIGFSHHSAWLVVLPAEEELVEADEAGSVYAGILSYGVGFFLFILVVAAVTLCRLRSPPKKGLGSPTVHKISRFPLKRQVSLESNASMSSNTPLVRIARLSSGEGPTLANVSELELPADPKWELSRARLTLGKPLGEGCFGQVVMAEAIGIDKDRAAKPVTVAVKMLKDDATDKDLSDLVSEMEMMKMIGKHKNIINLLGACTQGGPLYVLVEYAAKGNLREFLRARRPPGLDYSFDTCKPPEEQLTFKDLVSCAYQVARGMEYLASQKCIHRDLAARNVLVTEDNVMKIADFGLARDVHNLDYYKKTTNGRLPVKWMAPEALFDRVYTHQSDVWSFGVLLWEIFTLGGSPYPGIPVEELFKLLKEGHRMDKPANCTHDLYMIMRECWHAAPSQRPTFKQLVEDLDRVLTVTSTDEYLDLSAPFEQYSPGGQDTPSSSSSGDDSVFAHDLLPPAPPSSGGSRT
# assay_notes: phosphorylation enrichment, bacterial display (enrichment ratio); higher = better substrate or ligand; peptides without Tyr show the background;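 further: 11-residue human phosphosite peptides and single-mutation variants displayed on the E. coli surface, counted by deep sequencing, each peptide's frequency after selection divided by its frequency in the unselected input library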;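 further: frequency after pTyr selection over input frequency; kinase dosed for 20-30% of maximal phosphorylation in three min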
Attribute: phosphorylation enrichment
Quick one: just the number, no unit, thanks!

SGIYQYSIAKF [FOXL2_Y83_I84S] : 1.46
KVKGEYDMTVP [AHNAK_Y964] : 0.607
ILTLKYPIEHG [ACTA1_Y71] : 0.592
AMGAVYQAAAL [HYOU1_Y421] : 0.612
EKQARYEIVVE [CDH5_Y223] : 0.532

Name the reported phosphorylation enrichment value associated with the sequence WFPSTYVEEDE [VAV3_Y842]
0.81

Name the reported phosphorylation enrichment value associated with the sequence IKKLIYVYLVI [JAGN1_Y42_H44Y]
0.452
